Target: T1, HTRA3, P83110
T1 sequence (P83110 354-453, limits assumed, looked up): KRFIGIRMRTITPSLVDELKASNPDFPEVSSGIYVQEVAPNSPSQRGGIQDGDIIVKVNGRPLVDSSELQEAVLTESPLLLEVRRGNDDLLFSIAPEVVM
Assay: holdup assay
Parameters: key: below the threshold = too weak to quantify, mostly under pKd 3.1 to 4
Settings: plain residues with an end cap or a label only (N-terminal biotin on a linker: ado-ado)
Quantity Kind: pKd

These solved cases illustrate the format of a correct answer.
{"columns": ["Binder", "Result Value"],
 "data": [
  ["PKSNSSKEYV [CLDN7, O95471]", 3.8],
  ["QLKSGRDSTV [TMEM178A, Q8NBL3]", "below the threshold"],
  ["KPDKQEEFYA [SDC3, O75056]", 4.41],
  ["EAVTVESTSL [SLC22A11, Q9NSA0]", "below the threshold"],
  ["PLATCDETSI [SEMA4F, O95754]", "below the threshold"],
  ["IQISELETNV [SLC1A7, O00341]", "below the threshold"],
  ["VKQYADVEGF [HNRNPK, P61978;P61978-2]", "below the threshold"]
]}

input: Name the recorded pKd for TKEIPNCTSV [SORCS3, Q9UPU3] .
output: 3.52

Where these numbers come from: paper PMC9482650
